assay: chemical genetic growth profiling, strain panel (AID 1159580);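 also: tested at 20 µM; growth read once vehicle control cultures reached saturation at 30 °C; 1 = growth at the plate median or of vehicle wells; lower values mean less growth of the strain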; details: S. cerevisiae deletion strains, growth OD, locus YOR136W, strain idh2, hits give low values
Hit rate of the full screen: of about 5,500 compounds, about 2,000 (36%) were called active. About 18% were inconclusive and are not listed. This is one part of the list.
// values below are reported normalized growth
Please reply with the number alone, leaving off any unit.

CC1CCC(NC(=O)N(CCCl)N=O)CC1 (stereo unspecified)	0.992

Lab note: O=c1cccc2n1CC1CC2CN2CCCC[C@@H]12 (stereo partly specified) gave normalized growth of 0.973

Memo: Clc1ccc(COC(Cn2ccnc2)c2ccc(Cl)cc2Cl)c(Cl)c1 (stereo unspecified) , reported normalized growth: 0.0723

Given item CN1CCC[C@@H]1CCO[C@](C)(c1ccccc1)c1ccc(Cl)cc1 , the value recorded as its normalized growth is 0.991

Item: Clc1ccc(CSC(Cn2ccnc2)c2ccc(Cl)cc2Cl)cc1 (stereo unspecified) | normalized growth: 0.0693

Please fill in: normalized growth reported for Clc1ccc(COC(Cn2ccnc2)c2ccc(Cl)cc2Cl)cc1 (stereo unspecified) = 0.0693

----------
The entries below are paired with their reported normalized growth.
test: chemical genetic growth profiling, strain panel (AID 1159580);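 also: tested at 20 µM; growth read once vehicle control cultures reached saturation at 30 °C; 1 = growth at the plate median or of vehicle wells; lower values mean less growth of the strain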; conditions: S. cerevisiae deletion strains, growth OD, locus YML124C, strain tub3, hits give low values
About 2,000 (36%) of roughly 5,500 compounds were called active. Not shown: some 18% with an inconclusive outcome. Some of the results follow.

Known results for compounds:
CCC(=O)OC1[C@@H]2CC3=C4CC(=O)O[C@@H](c5ccoc5)[C@]4(C)CCC3[C@@](C)(C2=O)[C@@H](CC(=O)OC)C1(C)C (stereo not given in full)	1.01 (inactive)
C[C@]12CCC3c4ccc(OC(=O)c5ccccc5)cc4CCC3C1CCC2=O (stereo not given in full)	1.01 (inactive)
COc1ccc2c(c1)OCC(Cc1ccc(OC)c(OC)c1)C2=O (stereo not given)	0.986 (inactive)
CN(C)C(=O)Oc1ccc[n+](C)c1	1.04 (inactive)

Just so you know, measured normalized growth for CC1CCC(NC(=O)N(CCCl)N=O)CC1 (stereo not given) came out at 1 (inactive)

COc1ccc2c(c1)OCC(Cc1ccc(OC)c(O)c1)C2=O (stereo not given) has a reported normalized growth of 0.954 (inactive)

----------
assay: chemical genetic growth profiling, strain panel (AID 1159580);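 also: tested at 20 µM; growth read once vehicle control cultures reached saturation at 30 °C; 1 = growth at the plate median or of vehicle wells; lower values mean less growth of the strain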; conditions: S. cerevisiae deletion strains, growth OD, locus YJL187C, strain SWE1 (second series), hits give low values
The whole screen tested about 5,500 compounds, of which about 2,000 (36%) were called active. About 18% were inconclusive and are not listed. The list shows a part of the results.
Recorded measurements of normalized growth, one per entry
The reply should be a number, written without any unit.

# example entries with known answers
O=c1oc2ccccc2cc1O	1.03
Cc1cccc(C)c1NC(=O)C1CCCCN1C (stereo not drawn)	1.01
COc1ccc2c(c1)OCC(Cc1ccc(OC)c(OC(C)=O)c1)C2=O (stereo not drawn)	0.991
CC(=O)OCC(=O)[C@@]1(O)CCC2C3CCC4=CC(=O)C=CC4(C)C3[C@@H](O)C[C@@]21C (stereo partly drawn)	1.01

# normalized growth (molecule: FC(F)(F)c1cccc(N2CCNCC2)c1 ) is 1.01

Looking up C=NC(C(=O)NC1C(=O)N2C1SC(C)(C)C2C(=O)O)c1ccccc1 (stereo not drawn) , I see its normalized growth listed as 1.01

GET /value?item= Clc1ccc(COC(Cn2ccnc2)c2ccc(Cl)cc2Cl)c(Cl)c1 (stereo not drawn) &field=normalized growth returns 0.0406

The molecule listed as COc1ccc2c(c1)OCC(Cc1ccc(OC)c(O)c1)C2=O (stereo not drawn) shows normalized growth equal to 0.926

Lab note: measured normalized growth of CC(=O)OC1CC(OC(C)=O)C2(C)C(CC(OC(C)=O)C3(C)C2CCC2(C)C(c4ccoc4)OC(=O)C4OC423)C1(C)C (stereo not drawn) was 1.01

Reported normalized growth ( Clc1ccc(COC(Cn2ccnc2)c2ccc(Cl)cc2Cl)cc1 (stereo not drawn) ) = 0.0469
